- target entity: bFFAR2 (bovine FFAR2/GPR43) (Bos taurus)
- Construct: full-length synthetic cDNA, N-terminal FLAG tag; transiently expressed in HEK293A cells
- Sequence (A0ACM8QIU6 1-329): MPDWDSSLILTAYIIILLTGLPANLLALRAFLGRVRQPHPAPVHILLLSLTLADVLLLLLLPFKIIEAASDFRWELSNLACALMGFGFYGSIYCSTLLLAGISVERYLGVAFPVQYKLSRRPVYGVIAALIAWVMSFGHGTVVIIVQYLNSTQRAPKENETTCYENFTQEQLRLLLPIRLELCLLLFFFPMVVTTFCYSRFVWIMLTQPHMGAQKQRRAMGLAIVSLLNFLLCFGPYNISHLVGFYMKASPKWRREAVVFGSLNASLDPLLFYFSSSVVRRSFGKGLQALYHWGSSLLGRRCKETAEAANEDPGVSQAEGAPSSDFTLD
- assay details: SRE luciferase reporter gene assay, HEK293A expressing bFFAR2
- Assay type: cell-based
quantity kind: pEC50
# reply with the number alone; pEC50 is -log10 of concentration in mol/L

Jot down pEC50 (bFFAR2 (bovine FFAR2/GPR43) (Bos taurus)) of CC(C)C(=O)O .
3.63
